These entries and their values trace back to the NIST ThermoML archive (doi:10.1021/je901050v).

# Protocol Conditions: 313.15 K; 101.33 kPa; Liquid; Vibrating tube method
Endpoint Name: mass density (kg/m3)

CCCCCCCCCCn1cc[n+](CCC#N)c1.[Br-] [3-(2-cyanoethyl)-1-decyl-1H-imidazolium bromide] | 1129.5
CCCCn1cc[n+](CCC#N)c1.[Br-] [1-butyl-3-(2-cyanoethyl)-1H-imidazolium bromide] | 1294.3
CCCCCCCCn1cc[n+](CCC#N)c1.[Br-] [3-(2-cyanoethyl)-1-octyl-1H-imidazolium bromide] | 1166.4
CCCCCCn1cc[n+](CCC#N)c1.[Br-] [3-(2-cyanoethyl)-1-hexyl-1H-imidazolium bromide] | 1219

###

# Protocol Conditions: 323.15 K; 101.33 kPa; Liquid; Vibrating tube method
Endpoint Name: mass density (kg/m3)

CCCCCCCCn1cc[n+](CCC#N)c1.[Br-] [3-(2-cyanoethyl)-1-octyl-1H-imidazolium bromide] | 1159.6
CCCCCCCCCCn1cc[n+](CCC#N)c1.[Br-] [3-(2-cyanoethyl)-1-decyl-1H-imidazolium bromide] | 1121.2
CCCCn1cc[n+](CCC#N)c1.[Br-] [1-butyl-3-(2-cyanoethyl)-1H-imidazolium bromide] | 1287.6
CCCCCCn1cc[n+](CCC#N)c1.[Br-] [3-(2-cyanoethyl)-1-hexyl-1H-imidazolium bromide] | 1212.4

###

# Protocol Conditions: 343.15 K; 101.33 kPa; Liquid; Concentric cylinders viscometry
Endpoint Name: viscosity (mPa·s)

CCCCCCCCn1cc[n+](CCC#N)c1.[Br-] [3-(2-cyanoethyl)-1-octyl-1H-imidazolium bromide] | 1019.6
CCCCn1cc[n+](CCC#N)c1.[Br-] [1-butyl-3-(2-cyanoethyl)-1H-imidazolium bromide] | 520.5

(P) CCCCCCn1cc[n+](CCC#N)c1.[Br-] [3-(2-cyanoethyl)-1-hexyl-1H-imidazolium bromide]
(Q) CCCCCCCCCCn1cc[n+](CCC#N)c1.[Br-] [3-(2-cyanoethyl)-1-decyl-1H-imidazolium bromide]
Query :: Given the listed items, does P or Q have the lesser reported viscosity? Identify your selection by its label.
Result :: P
(P: 639.6 mPa·s, Q: 1426.6 mPa·s)

###

# Method: refractive index (Na D-line) (dimensionless)
# Protocol Conditions: 328.15 K; 101.33 kPa; Liquid; Standard Abbe refractometry
Endpoint Name: refractive index

CCCCCCCCCCn1cc[n+](CCC#N)c1.[Br-] [3-(2-cyanoethyl)-1-decyl-1H-imidazolium bromide] | 1.50388
CCCCCCn1cc[n+](CCC#N)c1.[Br-] [3-(2-cyanoethyl)-1-hexyl-1H-imidazolium bromide] | 1.52229
CCCCn1cc[n+](CCC#N)c1.[Br-] [1-butyl-3-(2-cyanoethyl)-1H-imidazolium bromide] | 1.53869
CCCCCCCCn1cc[n+](CCC#N)c1.[Br-] [3-(2-cyanoethyl)-1-octyl-1H-imidazolium bromide] | 1.50757

###

# Protocol Conditions: 328.15 K; 101.33 kPa; Liquid; Concentric cylinders viscometry
Endpoint Name: viscosity (mPa·s)

(1) CCCCCCCCn1cc[n+](CCC#N)c1.[Br-] [3-(2-cyanoethyl)-1-octyl-1H-imidazolium bromide]
(2) CCCCn1cc[n+](CCC#N)c1.[Br-] [1-butyl-3-(2-cyanoethyl)-1H-imidazolium bromide]
Query :: Field: entry with larger viscosity (options 1 / 2 ). Identify your selection by its label.
Result :: 1
(1: 3291.8 mPa·s, 2: 1377.5 mPa·s)

(I) CCCCCCCCCCn1cc[n+](CCC#N)c1.[Br-] [3-(2-cyanoethyl)-1-decyl-1H-imidazolium bromide]
(II) CCCCCCn1cc[n+](CCC#N)c1.[Br-] [3-(2-cyanoethyl)-1-hexyl-1H-imidazolium bromide]
Query :: Given the listed items, does I or II have the lesser reported viscosity? Identify your selection by its label.
Result :: II
(II: 1618.2 mPa·s, I: 4573.6 mPa·s)

###

# Protocol Conditions: 338.15 K; 101.33 kPa; Liquid; Vibrating tube method
Endpoint Name: mass density (kg/m3)

CCCCCCCCCCn1cc[n+](CCC#N)c1.[Br-] [3-(2-cyanoethyl)-1-decyl-1H-imidazolium bromide] | 1111.7
CCCCCCn1cc[n+](CCC#N)c1.[Br-] [3-(2-cyanoethyl)-1-hexyl-1H-imidazolium bromide] | 1202.5
CCCCn1cc[n+](CCC#N)c1.[Br-] [1-butyl-3-(2-cyanoethyl)-1H-imidazolium bromide] | 1277.9
CCCCCCCCn1cc[n+](CCC#N)c1.[Br-] [3-(2-cyanoethyl)-1-octyl-1H-imidazolium bromide] | 1149.5

###

# Protocol Conditions: 333.15 K; 101.33 kPa; Liquid; Vibrating tube method
Endpoint Name: mass density (kg/m3)

CCCCCCn1cc[n+](CCC#N)c1.[Br-] [3-(2-cyanoethyl)-1-hexyl-1H-imidazolium bromide] | 1205.8
CCCCn1cc[n+](CCC#N)c1.[Br-] [1-butyl-3-(2-cyanoethyl)-1H-imidazolium bromide] | 1281.2
CCCCCCCCn1cc[n+](CCC#N)c1.[Br-] [3-(2-cyanoethyl)-1-octyl-1H-imidazolium bromide] | 1152.9
CCCCCCCCCCn1cc[n+](CCC#N)c1.[Br-] [3-(2-cyanoethyl)-1-decyl-1H-imidazolium bromide] | 1115

###

# Protocol Conditions: 308.15 K; 101.33 kPa; Liquid; Vibrating tube method
Endpoint Name: mass density (kg/m3)

CCCCCCCCn1cc[n+](CCC#N)c1.[Br-] [3-(2-cyanoethyl)-1-octyl-1H-imidazolium bromide] | 1169.8
CCCCCCCCCCn1cc[n+](CCC#N)c1.[Br-] [3-(2-cyanoethyl)-1-decyl-1H-imidazolium bromide] | 1134.2
CCCCn1cc[n+](CCC#N)c1.[Br-] [1-butyl-3-(2-cyanoethyl)-1H-imidazolium bromide] | 1297.7
CCCCCCn1cc[n+](CCC#N)c1.[Br-] [3-(2-cyanoethyl)-1-hexyl-1H-imidazolium bromide] | 1222.3

###

# Protocol Conditions: 333.15 K; 101.33 kPa; Liquid; Concentric cylinders viscometry
Endpoint Name: viscosity (mPa·s)

CCCCn1cc[n+](CCC#N)c1.[Br-] [1-butyl-3-(2-cyanoethyl)-1H-imidazolium bromide] | 975.6
CCCCCCCCCCn1cc[n+](CCC#N)c1.[Br-] [3-(2-cyanoethyl)-1-decyl-1H-imidazolium bromide] | 3016.4

(a) CCCCCCCCn1cc[n+](CCC#N)c1.[Br-] [3-(2-cyanoethyl)-1-octyl-1H-imidazolium bromide]
(b) CCCCCCn1cc[n+](CCC#N)c1.[Br-] [3-(2-cyanoethyl)-1-hexyl-1H-imidazolium bromide]
Query :: Field: entry with larger viscosity (options a / b ). Identify your selection by its label.
Result :: a

###

# Method: refractive index (Na D-line) (dimensionless)
# Protocol Conditions: 308.15 K; 101.33 kPa; Liquid; Standard Abbe refractometry
Endpoint Name: refractive index

CCCCCCCCCCn1cc[n+](CCC#N)c1.[Br-] [3-(2-cyanoethyl)-1-decyl-1H-imidazolium bromide] | 1.50786
CCCCn1cc[n+](CCC#N)c1.[Br-] [1-butyl-3-(2-cyanoethyl)-1H-imidazolium bromide] | 1.54346
CCCCCCCCn1cc[n+](CCC#N)c1.[Br-] [3-(2-cyanoethyl)-1-octyl-1H-imidazolium bromide] | 1.51266
CCCCCCn1cc[n+](CCC#N)c1.[Br-] [3-(2-cyanoethyl)-1-hexyl-1H-imidazolium bromide] | 1.52719

###

# Protocol Conditions: 323.15 K; 101.33 kPa; Liquid; Concentric cylinders viscometry
Endpoint Name: viscosity (mPa·s)

CCCCCCCCCCn1cc[n+](CCC#N)c1.[Br-] [3-(2-cyanoethyl)-1-decyl-1H-imidazolium bromide] | 6813.4
CCCCCCn1cc[n+](CCC#N)c1.[Br-] [3-(2-cyanoethyl)-1-hexyl-1H-imidazolium bromide] | 2379.9

(A) CCCCn1cc[n+](CCC#N)c1.[Br-] [1-butyl-3-(2-cyanoethyl)-1H-imidazolium bromide]
(B) CCCCCCCCn1cc[n+](CCC#N)c1.[Br-] [3-(2-cyanoethyl)-1-octyl-1H-imidazolium bromide]
Query :: Field: entry with larger viscosity (options A / B ). Identify your selection by its label.
Result :: B
(B: 5136.1 mPa·s, A: 1989.7 mPa·s)

###

# Protocol Conditions: 343.15 K; 101.33 kPa; Liquid; Vibrating tube method
Endpoint Name: mass density (kg/m3)

CCCCCCn1cc[n+](CCC#N)c1.[Br-] [3-(2-cyanoethyl)-1-hexyl-1H-imidazolium bromide] | 1199.2
CCCCn1cc[n+](CCC#N)c1.[Br-] [1-butyl-3-(2-cyanoethyl)-1H-imidazolium bromide] | 1274.7
CCCCCCCCn1cc[n+](CCC#N)c1.[Br-] [3-(2-cyanoethyl)-1-octyl-1H-imidazolium bromide] | 1146.1
CCCCCCCCCCn1cc[n+](CCC#N)c1.[Br-] [3-(2-cyanoethyl)-1-decyl-1H-imidazolium bromide] | 1108.5

###

# Method: refractive index (Na D-line) (dimensionless)
# Protocol Conditions: 313.15 K; 101.33 kPa; Liquid; Standard Abbe refractometry
Endpoint Name: refractive index

CCCCCCn1cc[n+](CCC#N)c1.[Br-] [3-(2-cyanoethyl)-1-hexyl-1H-imidazolium bromide] | 1.526
CCCCn1cc[n+](CCC#N)c1.[Br-] [1-butyl-3-(2-cyanoethyl)-1H-imidazolium bromide] | 1.54229
CCCCCCCCn1cc[n+](CCC#N)c1.[Br-] [3-(2-cyanoethyl)-1-octyl-1H-imidazolium bromide] | 1.51149
CCCCCCCCCCn1cc[n+](CCC#N)c1.[Br-] [3-(2-cyanoethyl)-1-decyl-1H-imidazolium bromide] | 1.50696
